All values here come from PubChem BioAssay.

# experimental-protocol: survival rescue of mitochondrial mutant cells in low glucose, primary screen, MELAS cybrids, Rieske KO mouse fibroblasts, CellTiter-Glo (AID 1508586);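 further: test concentration not given here; z relative to plate mean and SD of compound and empty wells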
# assay-context: Rieske KO mouse fibroblast survival, CellTiter-Glo 72 h
readout: z-score
Answer with a number only.

// known answers, use as guide
[Q] Would you kindly share the measured z-score for Nc1nc(N)nc(NC2CC2)n1 ?
[A] -0.194

[Q] Form field: reported z-score of C[C@@H]1CN(C2CCC(C#N)(c3ccc(F)cc3)CC2)CC[C@]1(C(=O)O)c1ccccc1 (stereo partly drawn)
[A] -1.19

[Q] Reported z-score for O=c1cccc2n1CC1CNCC2C1 (stereo not drawn) : what is it?
[A] -0.215

[Q] Which measured z-score value corresponds to C=CCN1CC[C@]23c4c5ccc(O)c4O[C@H]2/C(=N/N=C2\CC[C@@]4(O)[C@H]6Cc7ccc(O)c8c7[C@@]4(CCN6CC=C)[C@H]2O8)CC[C@@]3(O)[C@H]1C5 ?
[A] -0.931

[Q] Look up z-score for this compound: O=[N+]([O-])c1ncc[nH]1
[A] 0.743

[Q] Look up z-score: C[C@]12CCC(=O)C(O)=C1CC[C@@H]1[C@H]2CC[C@]2(C)C(=O)CC[C@@H]12
[A] 0.332

[Q] Name the recorded z-score for C=CCC1(CC(C)C)C(=O)NC(=O)NC1=O .
[A] 0.0147

[Q] Recorded z-score for CC1OC(OC2CC(O)[C@]3(CO)[C@H]4C(O)C[C@]5(C)C(C6=CC(=O)OC6)CC[C@]5(O)[C@@H]4CC[C@]3(O)C2)C(O)C(O)C1O (stereo partly drawn) , please?
[A] -0.151

Next:
[Q] Any idea what its z-score is? The compound is C[C@]12N[C@H](Cc3ccccc31)c1ccccc12
[A] 0.47

[Q] Item under review: CC[C@H](C)[C@H]1O[C@]2(C=C[C@@H]1C)C[C@@H]1C[C@@H](C/C=C(\C)C(O[C@H]3C[C@H](OC)C(O[C@H]4C[C@H](OC)[C@@H](O)[C@H](C)O4)[C@H](C)O3)[C@@H](C)/C=C/C=C3\CO[C@@H]4[C@H](O)C(C)=C[C@@H](C(=O)O1)[C@]34O)O2 (stereo partly drawn) . Reported z-score?
[A] 1.52

[Q] Which z-score is reported for this compound? CNC(C)(C)Cc1ccccc1
[A] -0.596

[Q] Which z-score value belongs to Cc1sc2c(c1C)C(c1ccc(Cl)cc1)=NC(CC(=O)Nc1ccc(O)cc1)c1nnc(C)n1-2 (stereo not drawn) ?
[A] -4.37

[Q] Endpoint output: z-score of CN1[C@@H]2CC[C@H]1CC(OC1c3ccccc3CCc3ccccc31)C2 (stereo partly drawn) . Value?
[A] 0.907
